Measurement Description: Toxicity liver stage against HepG2, at 10uM
Assay type: cell-based
Set-up: test concentration 10 uM, cell line HepG2-A16-CD81EGFP
Reported Conditions: human, HepG2-A16-CD81EGFP cells; read-out: INHIBITION
Documented cytotoxicity at 10 µM across a set of molecules
Value Kind: cytotoxicity at 10 µM (%)

>>> observed_value("Cc1ccc(C(=O)N2C[C@@H]3CCCO[C@@H]3[C@H](N(C)Cc3ccco3)C2)o1")
5.51
>>> observed_value("CCC1=N[C@@]2(CC[C@@H]3CN(S(C)(=O)=O)C[C@@H]32)C(=O)N1CC(C)C")
2.58
>>> observed_value("CSc1ncccc1C(=O)N1C[C@@H]2CC[C@H]1CN(C(C)=O)C2")
4.99
>>> observed_value("CCC(C)(C)c1cc(-c2c(C)nn(CCO)c2C)c(C#N)c(N)n1")
3.31
>>> observed_value("O=C(CCn1c(C(F)F)cc2cccnc21)NC1CCCCC1")
-27.9
>>> observed_value("O=C(c1ccc2[nH]ccc2c1)N1Cc2nc(CN3CCCCC3)oc2C1")
9.58

* * *

Measurement Description: Toxicity liver stage against HepG2, at 10uM
Assay type: cell-based
Parameters: test concentration 10 uM, cell line HepG2-A16-CD81EGFP
Reported Conditions: human, HepG2-A16-CD81EGFP cells; read-out: INHIBITION
Value Kind: cytotoxicity at 10 µM (%)

>>> observed_value("Cc1cnn(CC2CCCN2CC(=O)Nc2cc(C(C)C)no2)c1 (centres undefined)")
4.23
>>> observed_value("CCN1CCn2c(C)cnc2C12CCN(C(=O)Cc1ccccc1)CC2")
4.59
>>> observed_value("Cc1cccc(Oc2ccccc2CNC(=O)C2CCNC(=O)C2)c1 (centres undefined)")
3.6
>>> observed_value("Cc1ccc([C@@]2(O)CC[C@@H]3CN(S(=O)(=O)C(C)C)C[C@@H]32)cc1")
-38.9
>>> observed_value("CC(C)c1cc(N(C)Cc2noc(C3CCCC3)n2)n2nccc2n1")
-0.0395
>>> observed_value("Cc1ccc(C(=O)NC2CCCCNC2=O)c(=O)[nH]1 (centres undefined)")
-5.49
>>> observed_value("CC(C)C(Nc1nc(C(F)(F)F)nc2ccccc12)C(=O)O (centres undefined)")
-1.98
>>> observed_value("CC(C)(C)c1cc(NC(=O)NCCc2nnc3n2CCC3)c(C#N)s1")
14.1
>>> observed_value("CN1CCN2C[C@@H](CO)[C@H](c3ccccc3)[C@H]2C1")
8.78

* * *

Measurement Description: Toxicity liver stage against HepG2, at 10uM
Assay type: cell-based
Design: test concentration 10 uM, cell line HepG2-A16-CD81EGFP
Reported Conditions: human, HepG2-A16-CD81EGFP cells; read-out: INHIBITION
Value Kind: cytotoxicity at 10 µM (%)

>>> observed_value("Cc1cc(C(=O)N2CCNC(=O)C2)c(C)n1Cc1ccccn1")
-2.33
>>> observed_value("O=C(NCCc1c[nH]c2ccc(F)cc12)C1(n2cnnn2)CCCCC1")
-1.34
>>> observed_value("CCS(=O)(=O)Nc1cnn(Cc2cccc(C)c2)c1")
0.724
>>> observed_value("CC(CC(=O)N1CCCS1(=O)=O)c1ccccc1C(F)(F)F (stereo unspecified)")
8.92
>>> observed_value("Cc1ccc(N2CCN(C(=O)CCC(F)(F)F)C(C)C2)cc1 (stereo unspecified)")
-143
>>> observed_value("CN(C)C(=O)N1CCN(Cc2nnc(C(C)(C)C)o2)CC1")
0.278
>>> observed_value("COc1cccc(CN(Cc2ccco2)Cc2cnc(C)n2C)c1")
3.65
>>> observed_value("CC(C)CCCC1CN(C(=O)c2cnc[nH]2)CCO1 (stereo unspecified)")
2.83
>>> observed_value("CCc1n[nH]c(C2CN(C(=O)c3cnc(C)cn3)CCO2)n1 (stereo unspecified)")
-2.9
>>> observed_value("OC(CNCCn1cccn1)c1ccc(Br)cc1 (stereo unspecified)")
-19.9
>>> observed_value("O=C(CSc1ccc2c(c1)OCCO2)NS(=O)(=O)c1ccccc1Br")
-4.62
